System: pY641-STAT6 in Peripheral Blood Mononuclear Cells (PBMC)
experimentDescription: MSD-pSTAT-PBMC Assay (pSTAT6, IL-4 stimulated)
Type: cell-based, Human
testSettings: Homo sapiens, compound 3 hrs, then 1 ng/mL IL-4 for 10 min
pIC50: −log10 of the molar value.

{"compound": "CCCOC(=O)[C@H](C)NP(=O)(Oc1ccccc1)C(F)c1ccc2ccc(C(=O)N[C@H]3CN(C(=O)c4noc5ccc(C)cc45)CC[C@H]4CC[C@@H](C(=O)N5CCN(S(C)(=O)=O)CC5)N4C3=O)cc2c1 (stereo partly shown)", "pIC50": "6.00 to 7.00"}
{"compound": "CC(=O)N1CC[C@H]2CC[C@@H](C(=O)N3C[C@H](O)[C@@H](n4ccnn4)C3)N2C(=O)[C@@H](NC(=O)c2ccc3ccc(C(F)(F)P(=O)(OCCSC(=O)CC(C)C)OCCSC(=O)CC(C)C)cc3c2)C1", "pIC50": "< 5.52"}
{"compound": "Cc1ccc2[nH]nc(C(=O)N3CC[C@H]4CC[C@@H](C(=O)N(C)C)N4C(=O)[C@@H](NC(=O)c4ccc5ccc(C(F)(F)P(=O)(OCCSC(=O)CC(C)C)OCCSC(=O)CC(C)C)cc5c4)C3)c2c1", "pIC50": "≥ 7.00"}
{"compound": "CCCOC(=O)[C@H](C)NP(=O)(Oc1ccccc1)C(F)c1ccc2ccc(C(=O)N[C@H]3CCN(C(=O)c4cc(C)cc(Cl)c4)C[C@H]4CC[C@@H](C(=O)N5CCOCC5)N4C3=O)cc2c1 (stereo partly shown)", "pIC50": "5.52 to 6.00"}

---

assayedTarget: Recombinant STAT3 protein (STAT3(G127-I722)) (Homo sapiens)
Construct: Recombinant STAT3 protein (STAT3(G127-I722))
Sequence (P40763 127-722): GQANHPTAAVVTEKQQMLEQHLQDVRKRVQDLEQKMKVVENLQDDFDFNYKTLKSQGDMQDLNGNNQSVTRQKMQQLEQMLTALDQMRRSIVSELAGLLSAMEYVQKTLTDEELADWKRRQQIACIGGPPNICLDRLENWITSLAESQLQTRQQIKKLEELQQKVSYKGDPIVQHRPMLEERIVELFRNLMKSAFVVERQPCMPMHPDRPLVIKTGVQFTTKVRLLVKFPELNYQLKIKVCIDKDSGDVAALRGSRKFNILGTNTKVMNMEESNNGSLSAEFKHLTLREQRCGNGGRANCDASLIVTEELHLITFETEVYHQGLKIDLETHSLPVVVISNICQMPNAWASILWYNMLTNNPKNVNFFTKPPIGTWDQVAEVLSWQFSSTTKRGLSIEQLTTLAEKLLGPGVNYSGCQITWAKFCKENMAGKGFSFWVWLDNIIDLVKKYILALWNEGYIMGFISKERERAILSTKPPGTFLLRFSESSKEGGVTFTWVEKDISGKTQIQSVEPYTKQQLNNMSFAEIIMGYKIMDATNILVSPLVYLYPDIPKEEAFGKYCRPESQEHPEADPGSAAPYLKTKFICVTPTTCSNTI
experimentDescription: STAT3 Fluorescence Polarization (FP) Assay
testSettings: STAT3(G127-I722) 25 nM, probe 5-FAM-GpYLPQTV-NH2 2 nM, 45-minute incubation

{"compound": "O=C(N[C@H]1CN(c2ccccn2)C[C@H]2CC[C@@H](C(=O)N3CCOCC3)N2C1=O)c1ccc2ccc(C(F)P(=O)(O)O)cc2c1 (some centres unmarked)", "IC50": "> 10 µM"}
{"compound": "CC(=O)N1CC[C@H]2CC[C@@H](C(=O)N(C)c3ccc(Cl)cc3)N2C(=O)[C@@H](NC(=O)c2cc3cc(C(F)(F)P(=O)(O)O)ccc3s2)C1", "IC50": "1 to 10 µM"}
{"compound": "O=C(N[C@H]1CN(S(=O)(=O)CCc2ccccc2)CC[C@H]2CC[C@@H](C(=O)Nc3ccc(-c4ccccc4)cc3)N2C1=O)c1cc2cc(C(F)(F)P(=O)(O)O)ccc2s1", "IC50": "1 to 10 µM"}
{"compound": "Cc1ccc2onc(C(=O)N3CC[C@H]4CC[C@@H](C(=O)N5CCOC[C@@H]5c5ccccc5)N4C(=O)[C@@H](NC(=O)c4ccc5ccc(C(F)P(=O)(O)O)cc5c4)C3)c2c1 (some centres unmarked)", "IC50": "> 10 µM"}
{"compound": "CC(=O)N1CC[C@H]2CC[C@@H](C(=O)NC3COc4ccc(Cl)cc4C3)N2C(=O)[C@@H](NC(=O)c2cc3cc(C(F)(F)P(=O)(O)O)ccc3s2)C1 (some centres unmarked)", "IC50": "0.1 to 1 µM"}

---

assayedTarget: Recombinant STAT6 protein (STAT6(W123-T658)) (Homo sapiens, UniProt P42226)
Construct: Recombinant STAT6 protein (STAT6(W123-T658))
Sequence (P42226 123-658): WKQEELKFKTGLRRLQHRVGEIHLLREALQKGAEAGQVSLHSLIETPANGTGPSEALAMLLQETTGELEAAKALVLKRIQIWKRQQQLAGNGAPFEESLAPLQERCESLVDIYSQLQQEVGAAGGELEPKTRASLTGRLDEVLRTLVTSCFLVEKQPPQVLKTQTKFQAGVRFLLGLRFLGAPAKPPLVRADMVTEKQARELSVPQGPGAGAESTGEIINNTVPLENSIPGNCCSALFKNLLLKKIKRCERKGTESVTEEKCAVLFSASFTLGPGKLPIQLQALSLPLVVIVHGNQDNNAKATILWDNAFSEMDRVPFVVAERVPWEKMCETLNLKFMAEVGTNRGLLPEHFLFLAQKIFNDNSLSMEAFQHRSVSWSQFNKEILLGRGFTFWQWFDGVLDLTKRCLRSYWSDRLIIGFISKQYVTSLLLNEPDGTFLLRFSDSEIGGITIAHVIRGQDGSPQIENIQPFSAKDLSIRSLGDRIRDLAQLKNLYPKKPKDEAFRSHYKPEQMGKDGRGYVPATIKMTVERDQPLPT
experimentDescription: STAT6 Fluorescence Polarization (FP) Assay
testSettings: STAT6(W123-T658) 250 nM, probe 5-FAM-ApYKPFQDLI-NH2 2 nM, 45-minute incubation
Recorded IC50 for the following molecules

{"molecule": "O=C(N[C@H]1CN(CC(F)F)CC[C@H]2CC[C@@H](C(=O)N3CC(C(=O)N4CCOCC4)C3)N2C1=O)c1cc2cc(C(F)(F)P(=O)(O)O)ccc2s1", "assayedTarget": "Recombinant STAT6 protein (STAT6(W123-T658)) (Homo sapiens, UniProt P42226)", "IC50": "3 to 30 µM"}
{"molecule": "COc1ccc(C2CN(C(=O)[C@@H]3CC[C@@H]4CCN(C(C)=O)C[C@H](NC(=O)c5cc6cc(C(F)(F)P(=O)(O)O)ccc6s5)C(=O)N43)C[C@@H]2C#N)cn1 (relative stereo)", "assayedTarget": "Recombinant STAT6 protein (STAT6(W123-T658)) (Homo sapiens, UniProt P42226)", "IC50": "0.3 to 3 µM"}
{"molecule": "CC(=O)N1CC[C@H]2CC[C@@H](C(=O)N3CC(Oc4ccccc4)C3)N2C(=O)[C@@H](NC(=O)c2cc3cc(C(F)(F)P(=O)(O)O)ccc3[nH]2)C1", "assayedTarget": "Recombinant STAT6 protein (STAT6(W123-T658)) (Homo sapiens, UniProt P42226)", "IC50": "0.3 to 3 µM"}
{"molecule": "COc1ccccc1N(C)C(=O)[C@@H]1CC[C@@H]2CCN(C(C)=O)C[C@H](NC(=O)c3cc4cc(C(F)(F)P(=O)(O)O)ccc4[nH]3)C(=O)N21", "assayedTarget": "Recombinant STAT6 protein (STAT6(W123-T658)) (Homo sapiens, UniProt P42226)", "IC50": "0.3 to 3 µM"}
{"molecule": "CC(=O)N1CC[C@H]2CC[C@@H](C(=O)N(C)c3ccc4nnccc4c3)N2C(=O)[C@@H](NC(=O)c2ccc3cnc(C(F)(F)P(=O)(O)O)cc3c2)C1", "assayedTarget": "Recombinant STAT6 protein (STAT6(W123-T658)) (Homo sapiens, UniProt P42226)", "IC50": "0.3 to 3 µM"}
{"molecule": "CC(=O)N1CC[C@H]2CC[C@@H](C(=O)N(C)C3CCN(S(C)(=O)=O)CC3)N2C(=O)[C@@H](NC(=O)c2cc3cc(C(F)(F)P(=O)(O)O)ccc3s2)C1", "assayedTarget": "Recombinant STAT6 protein (STAT6(W123-T658)) (Homo sapiens, UniProt P42226)", "IC50": "0.3 to 3 µM"}
{"molecule": "COc1cccc(N(C)C(=O)[C@@H]2CC[C@@H]3CCN(C(C)=O)C[C@H](NC(=O)c4cc5cc(C(F)(F)P(=O)(O)O)ccc5[nH]4)C(=O)N32)c1", "assayedTarget": "Recombinant STAT6 protein (STAT6(W123-T658)) (Homo sapiens, UniProt P42226)", "IC50": "0.3 to 3 µM"}
{"molecule": "CC(=O)N1CC[C@H]2CC[C@@H](C(=O)N(C)c3ccccc3)N2C(=O)[C@@H](NC(=O)/C=C/c2cccc(C(F)(F)P(=O)(O)O)c2)C1", "assayedTarget": "Recombinant STAT6 protein (STAT6(W123-T658)) (Homo sapiens, UniProt P42226)", "IC50": "3 to 30 µM"}
{"molecule": "CC(=O)N1CC[C@H]2CC[C@@H](C(=O)N(c3ccccc3)c3ccccc3)N2C(=O)[C@@H](NC(=O)c2cc3cc(C(F)(F)P(=O)(O)O)ccc3[nH]2)C1", "assayedTarget": "Recombinant STAT6 protein (STAT6(W123-T658)) (Homo sapiens, UniProt P42226)", "IC50": "0.3 to 3 µM"}
{"molecule": "O=C(N[C@H]1CN(C(=O)Cc2ccccc2)CC[C@H]2CC[C@@H](C(=O)Nc3ccccc3-c3ccccc3)N2C1=O)c1cc2cc(C(F)(F)P(=O)(O)O)ccc2[nH]1", "assayedTarget": "Recombinant STAT6 protein (STAT6(W123-T658)) (Homo sapiens, UniProt P42226)", "IC50": "0.3 to 3 µM"}
{"molecule": "CC(=O)N1CC[C@H]2CC[C@@H](C(=O)N3C[C@H](C#N)[C@@]4(C3)C(=O)Nc3ccccc34)N2C(=O)[C@@H](NC(=O)c2cc3cc(C(F)(F)P(=O)(O)O)ccc3s2)C1 (single isomer, unassigned)", "assayedTarget": "Recombinant STAT6 protein (STAT6(W123-T658)) (Homo sapiens, UniProt P42226)", "IC50": "0.3 to 3 µM"}
{"molecule": "CC(=O)N1CC[C@H]2CC[C@@H](C(=O)N3CCCC[C@H]3Cc3ccccc3)N2C(=O)[C@@H](NC(=O)c2cc3cc(C(F)(F)P(=O)(O)O)ccc3[nH]2)C1", "assayedTarget": "Recombinant STAT6 protein (STAT6(W123-T658)) (Homo sapiens, UniProt P42226)", "IC50": "0.3 to 3 µM"}
{"molecule": "CC(=O)N1CC[C@H]2CC[C@@H](C(=O)N3C[C@H](c4ccccc4)[C@@H](O)C3)N2C(=O)[C@@H](NC(=O)c2cc3cc(C(F)(F)P(=O)(O)O)ccc3s2)C1 (relative stereo)", "assayedTarget": "Recombinant STAT6 protein (STAT6(W123-T658)) (Homo sapiens, UniProt P42226)", "IC50": "≤ 0.3 µM"}
{"molecule": "CC(=O)N1C[C@H](NC(=O)[C@@H]2CC[C@@H]3CCN(Cc4ncccn4)C[C@H](NC(=O)c4cc5cc(C(F)P(=O)(O)O)ccc5s4)C(=O)N32)[C@@H](F)C1 (some centres unmarked)", "assayedTarget": "Recombinant STAT6 protein (STAT6(W123-T658)) (Homo sapiens, UniProt P42226)", "IC50": "3 to 30 µM"}
{"molecule": "CC(C)CN1CC[C@H]2CC[C@@H](C(=O)N(C)C)N2C(=O)[C@@H](NC(=O)c2cc3cc(C(F)(F)P(=O)(O)O)ccc3[nH]2)C1", "assayedTarget": "Recombinant STAT6 protein (STAT6(W123-T658)) (Homo sapiens, UniProt P42226)", "IC50": "3 to 30 µM"}
{"molecule": "Cc1ccc2onc(C(=O)N3CC[C@H]4CC[C@@H](C(=O)N5CCOCC5)N4C(=O)[C@@H](NC(=O)c4ccc5c(C#N)cc(CP(=O)(O)O)cc5c4)C3)c2c1", "assayedTarget": "Recombinant STAT6 protein (STAT6(W123-T658)) (Homo sapiens, UniProt P42226)", "IC50": "0.3 to 3 µM"}
{"molecule": "Cc1ccc2onc(C(=O)N3CC[C@H]4CC[C@@H](C(=O)N5C[C@@H](c6ccn(C)c(=O)c6)CC56CC6)N4C(=O)[C@@H](NC(=O)c4ccc5ccc([C@@H](F)P(=O)(O)O)cc5c4)C3)c2c1", "assayedTarget": "Recombinant STAT6 protein (STAT6(W123-T658)) (Homo sapiens, UniProt P42226)", "IC50": "≤ 0.3 µM"}
{"molecule": "COc1cc(C2CN(C(=O)[C@@H]3CC[C@@H]4CCN(C(C)=O)C[C@H](NC(=O)c5cc6cc(C(F)(F)P(=O)(O)O)ccc6s5)C(=O)N43)C[C@@H]2C#N)ccn1 (relative stereo)", "assayedTarget": "Recombinant STAT6 protein (STAT6(W123-T658)) (Homo sapiens, UniProt P42226)", "IC50": "0.3 to 3 µM"}
{"molecule": "CC(=O)N1CC[C@H]2CC[C@@H](C(=O)Nc3cnc(S(C)(=O)=O)nc3)N2C(=O)[C@@H](NC(=O)c2cc3cc(C(F)(F)P(=O)(O)O)ccc3s2)C1", "assayedTarget": "Recombinant STAT6 protein (STAT6(W123-T658)) (Homo sapiens, UniProt P42226)", "IC50": "0.3 to 3 µM"}
{"molecule": "Cc1ccc2onc(C(=O)N3CC[C@H]4CC[C@@H](C(=O)N5CCN(S(C)(=O)=O)CC5)N4C(=O)[C@@H](NC(=O)c4ccc5ccc(C(F)P(=O)(O)O)cc5c4)C3)c2c1 (some centres unmarked)", "assayedTarget": "Recombinant STAT6 protein (STAT6(W123-T658)) (Homo sapiens, UniProt P42226)", "IC50": "≤ 0.3 µM"}
